meta.source: ChEMBL document CHEMBL1641380

target: 5-hydroxytryptamine receptor 7 (Rattus norvegicus, UniProt P32305)
Sequence (P32305 whole entry): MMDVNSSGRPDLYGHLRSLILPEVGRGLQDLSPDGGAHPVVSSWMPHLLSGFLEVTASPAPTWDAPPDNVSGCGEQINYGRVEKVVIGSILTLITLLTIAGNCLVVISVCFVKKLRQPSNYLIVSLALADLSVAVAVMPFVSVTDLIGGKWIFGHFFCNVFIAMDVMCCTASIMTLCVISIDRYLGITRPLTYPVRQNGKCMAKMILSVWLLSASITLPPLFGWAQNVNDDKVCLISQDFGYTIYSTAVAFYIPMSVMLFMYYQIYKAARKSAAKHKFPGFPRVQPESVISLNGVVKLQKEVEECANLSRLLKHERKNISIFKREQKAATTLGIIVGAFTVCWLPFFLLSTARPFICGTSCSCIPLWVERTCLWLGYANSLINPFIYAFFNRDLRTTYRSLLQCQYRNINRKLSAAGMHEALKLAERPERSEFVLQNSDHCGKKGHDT
experiment: Displacement of [3H]5-CT from rat recombinant 5HT7 receptor expressed in HEK293 cells after 60 mins
pKi: −log10 of the molar value.
assay-endpoint: pKi

Here's what some known entries look like.
| smiles-repr | pKi |
| --- | --- |
| Oc1ccc(-c2cn(Cc3ccccc3)c3c2CNCC3)cc1 | 5.00 |
| Fc1cccc(-c2cn(Cc3ccccc3)c3c2CNCC3)c1 | 5.56 |
| FC(F)(F)Oc1ccc(-c2cn(Cc3ccccc3)c3c2CNCC3)cc1 | 5.00 |
| Clc1ccc(Cn2cc(-c3ccccc3)c3c2CCNC3)cc1 | 6.12 |
| c1ccc(Cn2cc(-c3ccccc3)c3c2CCNC3)cc1 | 6.66 |

a: COc1ccc(-c2cn(Cc3ccccc3)c3c2CNCC3)cc1
b: Clc1ccc(-c2cn(Cc3ccccc3)c3c2CNCC3)cc1
c: Clc1ccccc1Cn1cc(-c2ccccc2)c2c1CCNC2
d: Clc1cccc(Cn2cc(-c3ccccc3)c3c2CCNC3)c1
// ascending sort on recorded pKi In your reply, arrange the labels in the requested order.
d, c, a, b
(d: 5.18, c: 5.64, a: 6.54, b: 6.97)
